Taken from patent US20240109974A1.

Molecular target: T1, human TNFR2 (Novoprotein, Cat #C830) (human, UniProt P20333 23-257, limits assumed)
T1 construct: construct not described; also called human TNFR2 protein
T1 sequence (looked up): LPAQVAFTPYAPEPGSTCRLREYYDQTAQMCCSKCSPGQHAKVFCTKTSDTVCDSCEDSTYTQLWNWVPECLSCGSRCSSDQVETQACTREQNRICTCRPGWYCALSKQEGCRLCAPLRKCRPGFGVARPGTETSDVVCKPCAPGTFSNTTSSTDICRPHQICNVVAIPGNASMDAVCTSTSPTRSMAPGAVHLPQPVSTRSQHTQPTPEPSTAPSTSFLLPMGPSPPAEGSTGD
Test: competition ELISA, competitor human TNFα-Biotin; IC50 against 224-WT
property label: % Relative activity (WT antibody/test antibody) (%)
The answer is to be given in %; state only the numeric part.

[[record]]
binder = "224-Hu7 (antibody, V domains shown, Humanized form of #224; also called VH9 + VL10) VH: QVQLVQSGSELKKPGASVKVSCKASGFNNKDIYMHWVRQAPGQGLEWMGRIDPATGNTKHDPKFQDKAVLSSDTSVSTAYLQISSLKAEDTAVYYCARSPYGDFGAMDYWGQGTLVTVSS VL: DIQMTQSPSSLSASVGDRVTITCTASSSVSSNYLHWYQQKPGKAPKLLIYSTSNLPSGVPSRFSGSGSGTDFTLTISSLQPEDFATYYCHQYHRSPWTFGQGTKVEIK"
unit = "%"
measured_result = 106

[[record]]
binder = "224-Hu6 (antibody, V domains shown, Humanized form of #224; also called VH8 + VL7) VH: QVQLVQSGAEVKKPGASVKVSCKASGFNNKDIYMHWVRQAPGQGLEWIGRIDPATGNTKHDPKFQDRVTMTSDTSTNTVYMELSSLRSEDTAVYYCARSPYGDFGAMDYWGQGTLVTVSS VL: DIQMTQSPSSLSASVGDRVTITCTASSSVSSNYLHWYQQKPGSSPKLWIYSTSNLPSGVPSRFSGSGSGTDFTLTISSLQPEDFATYYCHQYHRSPWTFGQGTKVEIK"
unit = "%"
measured_result = 115

[[record]]
binder = "224-Hu1 (antibody, V domains shown, Humanized form of #224; also called VH8 + VL6) VH: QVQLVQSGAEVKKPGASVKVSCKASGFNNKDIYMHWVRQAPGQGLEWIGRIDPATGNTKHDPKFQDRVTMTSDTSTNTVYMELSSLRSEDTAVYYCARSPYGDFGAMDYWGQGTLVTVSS VL: DIQMTQSPSSLSASVGDRVTITCTASSSVSSNYLHWYQQKPGKAPKLWIYSTSNLPSGVPSRFSGSGSGTDFTLTISSLQPEDFATYYCHQYHRSPWTFGQGTKVEIK"
unit = "%"
measured_result = 106

[[record]]
binder = "224-Hu5 (antibody, V domains shown, Humanized form of #224; also called VH9 + VL9) VH: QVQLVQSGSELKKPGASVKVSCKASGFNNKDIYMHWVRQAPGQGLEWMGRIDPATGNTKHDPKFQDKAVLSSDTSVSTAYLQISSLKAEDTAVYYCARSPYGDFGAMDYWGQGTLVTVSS VL: DIQMTQSPSSLSASVGDRVTITCTASSSVSSNYLHWYQQKPGKAPKLLIYSTSNLPSGVPSRFSGSGSGTDYSLTISSLQPEDFATYYCHQYHRSPWTFGQGTKVEIK"
unit = "%"
measured_result = 93.1

[[record]]
binder = "224-Hu2 (antibody, V domains shown, Humanized form of #224; also called VH9 + VL7) VH: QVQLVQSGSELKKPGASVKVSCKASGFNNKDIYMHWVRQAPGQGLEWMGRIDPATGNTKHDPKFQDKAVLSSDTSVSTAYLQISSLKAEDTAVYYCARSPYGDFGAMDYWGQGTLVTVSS VL: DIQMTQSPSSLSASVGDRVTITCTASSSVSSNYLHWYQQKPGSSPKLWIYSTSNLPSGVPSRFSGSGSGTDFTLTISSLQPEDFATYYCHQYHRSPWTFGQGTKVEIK"
unit = "%"
measured_result = 121

[[record]]
binder = "224-Hu4 (antibody, V domains shown, Humanized form of #224; also called VH9 + VL6) VH: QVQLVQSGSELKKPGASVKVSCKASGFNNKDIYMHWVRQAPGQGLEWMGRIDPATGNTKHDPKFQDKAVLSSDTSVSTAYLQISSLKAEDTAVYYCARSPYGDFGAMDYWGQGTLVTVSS VL: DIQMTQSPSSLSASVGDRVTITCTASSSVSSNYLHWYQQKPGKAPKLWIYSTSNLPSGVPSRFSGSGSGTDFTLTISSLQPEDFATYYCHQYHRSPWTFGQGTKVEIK"
unit = "%"
measured_result = 105


Next binder, % Relative activity (WT antibody/test antibody) to be filled in.
Which value of % Relative activity (WT antibody/test antibody) has been reported for 224-Hu3 (antibody, V domains shown, Humanized form of #224; also called VH9 + VL8) VH: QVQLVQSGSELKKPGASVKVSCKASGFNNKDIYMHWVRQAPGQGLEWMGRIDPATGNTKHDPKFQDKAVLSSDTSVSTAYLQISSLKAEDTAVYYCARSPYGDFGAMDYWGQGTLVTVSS VL: DIQMTQSPSSLSASVGDRVTITCTASSSVSSNYLHWYQQKPGKAPKLLIYSTSNLPSGVPSRFSGSGSGTDFTLTISSLQAEDAATYYCHQYHRSPWTFGQGTKVEIK in the records? 120
